For human H3 receptor (Homo sapiens), measured pKi is reported for the entries below.
Give bare numbers, as −log10 of the molar value.

c1ccc(C2CNCc3cc(OCCCN4CCCCC4)ncc32)cc1 (stereo not shown) : 9.00
CN1Cc2cc(OCCCN3CCCCC3)ncc2C(c2cccc(Cl)c2)C1 (stereo not shown) : 8.15
Fc1ccccc1C1CNCc2cc(OCCCN3CCCCC3)ncc21 (stereo not shown) : 9.00

Now for the molecule whose pKi we want.
Problem: # return recorded pKi for input c1ccc(C2CNCc3cc(OCCCN4CCOCC4)ncc32)cc1 (stereo not shown)
Result: 7.96

----------
Please respond with reported pKi for every item in the list.
Test Target: UniProt:P31652
Protocol Details: Rat brain SERT binding, [3H]-Citalopram displacement on rat brain membranes
Protocol Conditions: read-out: Rat SERT Ki; rat brain membranes without cerebellum; 0.6 nM [3H]-Citalopram; 60 min at 25° C.
One number for each entry, as −log10 of the molar value.

Take a look at these entries with their results.
CCN(CC)CCCOc1cc2c(cn1)C(c1ccc(OC)cc1)CNC2 (stereo not drawn) : 6.89
Clc1ccc(C2CNCc3cc(OCCCN4CCCCC4)ncc32)cc1 (stereo not drawn) : 7.52
COc1ccc(C2CN(C)Cc3cc(OCC4CCN(C(C)C)CC4)ncc32)cc1 (stereo not drawn) : 7.35
CCN(CC)CCCOc1cc2c(cn1)C(c1ccc(Cl)c(Cl)c1)CNC2 (stereo not drawn) : 7.82

// input: 5 compounds below; output: pKi for each
1. CN1Cc2cc(OCCCN3CCCCC3)ncc2C(c2cccc(Cl)c2)C1 (stereo not drawn)
2. COc1ccc(C2CN(C)Cc3cc(OCCCN4CCOCC4)ncc32)cc1 (stereo not drawn)
3. c1ccc(C2CNCc3cc(OCCCN4CCCCC4)ncc32)cc1 (stereo not drawn)
4. COc1ccc(C2CNCc3cc(OCC4CCN(C(C)C)CC4)ncc32)cc1 (stereo not drawn)
5. COc1cccc(C2CN(C)Cc3cc(OCCCN4CCCCC4)ncc32)c1 (stereo not drawn)

Result:
6.84
7.54
5.78
7.82
7.23

----------
Test Target: human H3 receptor (Homo sapiens, UniProt Q9Y5N1)
Construct: expressed in transfected cells; host or cells: SK-N-MC cells
Sequence (Q9Y5N1 whole entry): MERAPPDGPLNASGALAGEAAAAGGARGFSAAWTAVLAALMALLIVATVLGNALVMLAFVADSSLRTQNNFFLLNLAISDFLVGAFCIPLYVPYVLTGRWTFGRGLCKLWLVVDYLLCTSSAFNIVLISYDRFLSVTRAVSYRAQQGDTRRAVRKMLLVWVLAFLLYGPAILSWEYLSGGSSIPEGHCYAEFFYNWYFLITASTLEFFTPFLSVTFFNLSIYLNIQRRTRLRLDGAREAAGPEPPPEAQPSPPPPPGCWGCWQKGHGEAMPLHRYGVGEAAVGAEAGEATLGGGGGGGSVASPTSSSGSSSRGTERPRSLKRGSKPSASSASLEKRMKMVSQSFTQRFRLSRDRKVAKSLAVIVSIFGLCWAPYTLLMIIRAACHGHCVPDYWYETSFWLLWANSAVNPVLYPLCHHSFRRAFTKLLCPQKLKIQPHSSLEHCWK
Protocol Details: Cyclic AMP accumulation, β-galactosidase reporter in SK-N-MC cells
Type: cell-based
Protocol Conditions: read-out: pA2 (converted)
Please respond with reported Kb for every item in the list.
One number for each entry, in nM.

Take a look at these entries with their results.
Clc1ccc(C2CNCc3cc(OCCCN4CCCCC4)ncc32)cc1 (stereo not drawn) [Example 23] : 3.98
COc1cccc(C2CNCc3cc(OCCCN4CCCCC4)ncc32)c1 (stereo not drawn) [Example 13] : 1
CCN(CC)CCCOc1cc2c(cn1)C(c1ccc(Cl)c(Cl)c1)CNC2 (stereo not drawn) [Example 21] : 15.8
Clc1cccc(C2CNCc3cc(OCCCN4CCCCC4)ncc32)c1 (stereo not drawn) [Example 24] : 2.51
c1ccc(C2CNCc3cc(OCCCN4CCCCC4)ncc32)cc1 (stereo not drawn) [Example 4] : 0.794

// input: 4 molecules below; output: Kb for each
1. CN1Cc2cc(OCCCN3CCCCC3)ncc2C(c2cccc(F)c2)C1 (stereo not drawn) [Example 34]
2. COc1ccc(C2CNCc3cc(OCCCN4CCCCC4)ncc32)cc1 (stereo not drawn) [Example 6]
3. Fc1ccc(C2CNCc3cc(OCCCN4CCCCC4)ncc32)cc1Cl (stereo not drawn) [Example 33]
4. Clc1ccc(C2CNCc3cc(OCCCN4CCCCC4)ncc32)cc1Cl (racemic) [Example 15]

Result:
1. 1
2. 6.31
3. 3.16
4. 12.6

----------
Please respond with reported Ki for every item in the list.
Test Target: human H3 receptor (Homo sapiens)

// input: 3 molecules below; output: Ki for each
1. Clc1ccc(C2CNCc3cc(OCCCN4CCCCC4)ncc32)cc1Cl (single isomer, unassigned; enantiomer b) [Example 46]
2. COc1ccc(C2CNCc3cc(OCCCN4CCC(F)(F)CC4)ncc32)cc1 (stereo not shown) [Example 19]
3. CN1Cc2cc(OCCCN3CCCCC3)ncc2C(c2ccccc2F)C1 (stereo not shown) [Example 2]

Result:
13 nM
208 nM
2 nM

Problem: # return recorded Ki for input Clc1ccc(C2CNCc3cc(OCCCN4CCCCC4)ncc32)cc1Cl (racemic) [Example 15]
Result: 5 nM

----------
Test Target: human H3 receptor (Homo sapiens)
Construct: expressed in transfected cells; host or cells: SK-N-MC cells
Protocol Details: Cyclic AMP accumulation, β-galactosidase reporter in SK-N-MC cells
Format: cell-based
Protocol Conditions: read-out: pA2 (converted)
Method: Sublines of SK-N-MC cells were created that expressed a reporter construct and the human H3 receptor. The reporter gene (β-galactosidase) is under the control of multiple cyclic AMP responsive elements. […] Color was developed using 25 μL of 1 mg/mL substrate solution (chlorophenolred β-D galactopyranoside; Roche Molecular Biochemicals, Indianapolis, Ind.) Color was quantitated on a microplate reader at absorbance 570 nm.
Readout Name: Kb (nM)
One number for each entry, in nM.

Take a look at these entries with their results.
Fc1cccc(C2CNCc3cc(OCCCN4CCCCC4)ncc32)c1 (stereo not drawn) [Example 32] : 2.51
CCN(CC)CCCOc1cc2c(cn1)C(c1ccccc1)CN(C)C2 (stereo not drawn) [Example 7] : 0.631
Fc1ccccc1C1CNCc2cc(OCCCN3CCCCC3)ncc21 (stereo not drawn) [Example 1] : 0.794

// input: 6 compounds below; output: Kb for each
1. Fc1ccc(C2CNCc3cc(OCCCN4CCCCC4)ncc32)cc1 (stereo not drawn) [Example 17]
2. CN1Cc2cc(OCCCN3CCCCC3)ncc2C(c2ccc(F)cc2)C1 (stereo not drawn) [Example 18]
3. Clc1ccccc1C1CNCc2cc(OCCCN3CCCCC3)ncc21 (stereo not drawn) [Example 25]
4. CCN(CC)CCCOc1cc2c(cn1)C(c1ccccc1)CNC2 (stereo not drawn) [Example 5]
5. CN1Cc2cc(OCCCN3CCCCC3)ncc2C(c2ccccc2F)C1 (stereo not drawn) [Example 2]
6. COc1ccc(C2CNCc3cc(OCC4CCN(C(C)C)CC4)ncc32)cc1 (stereo not drawn) [Example 31]

Result:
1. 2.51
2. 3.98
3. 1
4. 2
5. 1
6. 3.98

----------
Test Target: Rat SERT (Rattus norvegicus)
Sequence (P31652 whole entry): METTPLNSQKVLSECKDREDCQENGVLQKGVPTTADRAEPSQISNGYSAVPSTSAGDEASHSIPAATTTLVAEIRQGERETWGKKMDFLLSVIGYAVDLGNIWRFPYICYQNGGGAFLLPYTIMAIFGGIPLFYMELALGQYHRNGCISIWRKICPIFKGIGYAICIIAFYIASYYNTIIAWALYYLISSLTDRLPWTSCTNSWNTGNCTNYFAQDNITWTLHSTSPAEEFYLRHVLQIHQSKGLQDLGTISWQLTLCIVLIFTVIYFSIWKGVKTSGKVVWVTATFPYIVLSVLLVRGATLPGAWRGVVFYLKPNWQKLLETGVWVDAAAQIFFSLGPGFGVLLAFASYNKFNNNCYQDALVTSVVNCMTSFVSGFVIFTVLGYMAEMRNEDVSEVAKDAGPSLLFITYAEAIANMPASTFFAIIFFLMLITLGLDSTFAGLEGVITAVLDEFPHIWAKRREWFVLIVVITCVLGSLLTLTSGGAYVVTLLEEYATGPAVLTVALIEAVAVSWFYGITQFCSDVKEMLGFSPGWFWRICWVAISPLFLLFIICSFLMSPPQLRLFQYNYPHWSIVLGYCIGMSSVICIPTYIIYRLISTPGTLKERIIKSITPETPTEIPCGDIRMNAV
Protocol Details: Rat brain SERT binding, [3H]-Citalopram displacement on rat brain membranes
Please respond with reported log10 Ki for every item in the list.
Please interpret these as log10 of Ki where Ki is in nM.

Take a look at these entries with their results.
CN1Cc2cc(OCCCN3CCCCC3)ncc2C(c2cccc(F)c2)C1 (stereo not drawn) : 2.27
COc1cccc(C2CNCc3cc(OCCCN4CCCCC4)ncc32)c1 (stereo not drawn) : 2.25
COc1ccc(C2CN(C)Cc3nc(OCCCN4CCCCC4)ccc32)cc1 (stereo not drawn) : 0.60
COc1ccc(C2CNCc3cc(OC4CCNCC4)ncc32)cc1 (stereo not drawn) : 2.03
COc1ccc(C2CN(C)Cc3cc(OCCC4CCCN4C)ncc32)cc1 (stereo not drawn) : 1.30

// input: 4 compounds below; output: log10 Ki for each
1. CN1Cc2cc(OCCCN3CCCCC3)ncc2C(c2ccc(F)c(Cl)c2)C1 (stereo not drawn)
2. Fc1ccccc1C1CNCc2cc(OCCCN3CCCCC3)ncc21 (stereo not drawn)
3. Fc1ccc(C2CNCc3cc(OCCCN4CCCCC4)ncc32)cc1 (stereo not drawn)
4. COc1ccc(C2CNCc3cc(OC4CCN(Cc5ccccc5)CC4)ncc32)cc1 (stereo not drawn)

Result:
[1.41, 3.00, 2.49, 1.94]

----------
Test Target: human H3 receptor (Homo sapiens, UniProt Q9Y5N1)
Readout Name: Ki (nM)
Give bare numbers, in nM.

Take a look at these entries with their results.
COc1ccc(C2CN(C)Cc3cc(OCCCN4CCC(F)(F)CC4)ncc32)cc1 (stereo not drawn) : 264
CN1Cc2cc(OCCCN3CCCCC3)ncc2C(c2ccccc2)C1 (stereo not drawn) : 5
COc1ccc(C2CN(C)Cc3cc(OCCCN4CCCCC4)ncc32)cc1 (stereo not drawn) : 12
CCN(CC)CCCOc1cc2c(cn1)C(c1ccc(OC)cc1)CNC2 (stereo not drawn) : 23
COc1ccc(C2CN(C)Cc3cc(OCC4CCN(C(C)C)CC4)ncc32)cc1 (stereo not drawn) : 13
COc1ccc(C2CNCc3cc(OCCCN4CCCCC4)ncc32)cc1 (stereo not drawn) : 4

// input: 3 compounds below; output: Ki for each
1. Clc1ccc(C2CNCc3cc(OCCCN4CCCCC4)ncc32)cc1Cl (single isomer, unassigned; enantiomer a) [Example 45]
2. Clc1ccc(C2CNCc3cc(OCCCN4CCCCC4)ncc32)cc1 (stereo not drawn)
3. FC(F)(F)Oc1ccc(C2CNCc3cc(OCCCN4CCCCC4)ncc32)cc1 (stereo not drawn)

Result:
[4, 2, 18]

----------
For human H3 receptor (Homo sapiens, UniProt Q9Y5N1), measured log10 Ki is reported for the entries below.
Structures can show the parent of a compound that is named as a salt.
Please interpret these as log10 of Ki where Ki is in nM.

// input: 7 compounds below; output: log10 Ki for each
1. CN1Cc2cc(OCCCN3CCCCC3)ncc2C(c2ccc(F)cc2)C1 (centres unmarked)
2. COc1ccc(C2CN(C)Cc3cc(OC4CCN(C)CC4)ncc32)cc1 (centres unmarked)
3. COc1ccc(C2CN(C)Cc3cc(CCCCN4CCCCC4)cnc32)cc1 (centres unmarked) [Example 49, trifluoroacetic acid salt]
4. COc1ccc(C2CN(C)Cc3cc(C#CCCN4CCCCC4)cnc32)cc1 (centres unmarked) [Example 48, trifluoroacetic acid salt]
5. Clc1ccccc1C1CNCc2cc(OCCCN3CCCCC3)ncc21 (centres unmarked)
6. COc1ccc(C2CNCc3cc(OCC4CCN(C(C)C)CC4)ncc32)cc1 (centres unmarked)
7. CN1Cc2cc(OCCCN3CCCCC3)ncc2C(c2ccc(Cl)c(Cl)c2)C1 (single isomer, unassigned; enantiomer b) [Example 39]

Result:
0.95
2.90
1.89
1.65
0.00
0.60
1.62

Problem: # return recorded log10 Ki for input Fc1ccc(C2CNCc3cc(OCCCN4CCCCC4)ncc32)cc1Cl (centres unmarked)
Result: 0.00
